Biological target: humanδ-OR / β-arrestin 2 (Homo sapiens, UniProt P41143)
Sequence (P41143 whole entry): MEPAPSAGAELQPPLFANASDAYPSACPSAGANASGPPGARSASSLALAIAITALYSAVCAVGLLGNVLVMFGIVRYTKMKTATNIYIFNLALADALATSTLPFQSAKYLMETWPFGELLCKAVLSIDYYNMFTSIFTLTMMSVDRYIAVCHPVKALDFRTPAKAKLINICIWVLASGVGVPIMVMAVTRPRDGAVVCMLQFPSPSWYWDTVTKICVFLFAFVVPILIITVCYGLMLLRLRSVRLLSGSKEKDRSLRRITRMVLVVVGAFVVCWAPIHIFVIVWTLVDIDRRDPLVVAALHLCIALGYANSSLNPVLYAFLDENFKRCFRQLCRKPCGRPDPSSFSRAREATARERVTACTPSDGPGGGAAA
Test: β-arrestin 2 recruitment, CHO-humanδ-OR PathHunter cells
Format: cell-based
Where no end group is shown, it is not given here.

SUBSTANCE	TEST TARGET	EC50 / µM
YPLDLF [Rubiscolin-6]	humanδ-OR / β-arrestin 2 (Homo sapiens, UniProt P41143)	7.94
